target: Adenylate cyclase; experiment: Inhibitory activity against Dopamine sensitive adenylate cyclase in rats
# Ki per entry
Write the numeric value and append its unit.

Please review the following examples before continuing.
Field request: Ki | item: "Br.CN1CCc2cc(O)c(O)c(Sc3ccccc3)c2CC1"
22 nM

Please look up its Ki: "CN1CCc2c(Cl)c(O)c(O)c(Sc3ccccc3)c2CC1"
33 nM

Dear colleague, I am looking for the recorded Ki of the following compound: CN(C)CCCN1c2ccccc2Sc2ccc(Cl)cc21 [CHLORPROMAZINE]
118 nM

Then this compound:
Form field: reported Ki of "Br.Oc1cc2c(c(Sc3ccccc3)c1O)CCNCC2"
250 nM
